Tested on: SR
assay.notes: NCI tumour cell line growth inhibition, 48 h
Active and inactive are the calls of the source. Rule as the data show it: active = GI50 up to about 1.1 µM and inactive = higher.
Possible outcomes: active, inactive

INSERT INTO assay_data (compound, class_assignment) VALUES
  ('Cc1cc(NS(=O)(=O)c2ccc(NC(=O)c3ccc4nc5ccccc5c(Nc5ccc(S(=O)(=O)Nc6cc(C)on6)cc5)c4c3)cc2)no1', 'inactive'),
  ('O=C1c2ccccc2C(=O)c2c1ccc(C(=O)O)c2-c1ccc2ccccc2c1', 'inactive'),
  ('O=C1c2ccccc2-c2ccc(NC(=O)C3CCCCC3C(=O)O)cc21 (stereo not given)', 'inactive'),
  ('CN(C)c1ccc(/C=C/c2cc(-c3ccccc3)[n+](C)n2-c2ccccc2)cc1', 'active'),
  ('CC(C)/C(Cl)=N/OC(=O)Nc1ccc(F)c(Cl)c1', 'inactive'),
  ('Cc1ccc(-c2c(C#N)c(S)n(NS(=O)(=O)c3ccc(C)cc3)c(=O)c2C#N)cc1', 'inactive'),
  ('C=C1C(=O)C23C(CC(OC(C)=O)C1[C@@H]2OC(C)=O)C1(C)C(OC(C)=O)CCC(C)(C)C1C[C@@H]3OC(C)=O (stereo not given in full)', 'inactive'),
  ('O=C(CCN1CCCCC1)C(=Cc1ccccc1)C(=O)CCN1CCCCC1', 'inactive'),
  ('COC(=O)c1ccccc1/C=C1\Cc2ccc3ccccc3c2C1C (stereo not given)', 'inactive'),
  ('COC(=O)/C=C(\S/C(=C(/c1ccc(OC)cc1)n1cc(C(=O)OC)c(C(=O)OC)n1)c1ccc(OC)cc1)C(=O)OC', 'inactive'),
  ('CN(CCO)/N=N/c1[nH]cnc1C(N)=O', 'inactive'),
  ('O=c1n(-c2ccccc2)c(=O)n2n1C1C=CC2C2C(C1)C2(Cl)Cl (stereo not given)', 'inactive'),
  ('CC(Oc1ccc2c(-c3ccc(Cl)cc3)cc(=O)oc2c1)C(=O)O (stereo not given)', 'inactive'),
  ('Cn1c(=O)c2c(nc3n2CCC(=O)N3)n(C)c1=O', 'inactive'),
  ('c1cnc2c(c1)-n1cccc1C1(CCOCC1)NN2', 'inactive'),
  ('COC(=O)[C@@H](NC(=O)c1ccc(CNC(=O)/C(C)=C/c2ccccc2)cc1)C(C)C', 'inactive'),
  ('COc1cc2c(cc1OCCCN1C(=O)c3cccc4cccc(c34)C1=O)N=C[C@@H]1CCCN1C2=O', 'inactive'),
  ('CCCC[C@H]1C(=O)O[C@H](C)[C@H](NC(=O)c2cccc(NC=O)c2O)C(=O)O[C@@H](C)[C@@H]1OC(=O)CC(C)C [ANTIMYCIN A3]', 'active'),
  ('COc1cc(OC)c(Oc2cccc(OC)c2OC)c(OC)c1', 'inactive'),
  ('COC(=O)/C(C#N)=C1\NC(=O)c2ccccc21', 'inactive');
